Provenance of the data: paper PMC7588595

experimental system: human AspH (His6-AspH315–758) (Homo sapiens)
Construct: N-Terminally His6-tagged human AspH315–758 (His6-AspH315–758) was produced in Escherichia coli BL21 (DE3) cells; made in house; host or cells: Escherichia coli BL21 (DE3), pET-28a(+) vector
Sequence (Q12797 315-758): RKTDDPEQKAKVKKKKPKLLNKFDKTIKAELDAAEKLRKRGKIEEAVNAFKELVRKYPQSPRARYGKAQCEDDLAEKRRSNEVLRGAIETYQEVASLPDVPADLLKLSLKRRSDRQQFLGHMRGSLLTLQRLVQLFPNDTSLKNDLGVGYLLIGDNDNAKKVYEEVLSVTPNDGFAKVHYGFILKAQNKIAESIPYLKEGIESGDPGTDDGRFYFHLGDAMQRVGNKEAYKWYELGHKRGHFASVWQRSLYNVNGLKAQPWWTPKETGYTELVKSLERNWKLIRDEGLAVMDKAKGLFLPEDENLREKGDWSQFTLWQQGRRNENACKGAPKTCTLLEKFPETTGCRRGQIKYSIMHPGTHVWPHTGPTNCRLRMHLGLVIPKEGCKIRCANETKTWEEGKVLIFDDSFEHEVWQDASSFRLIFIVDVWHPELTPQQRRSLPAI
measurement notes: SPE-MS AspH inhibition assay (hFX-CP101-119 substrate hydroxylation)
Assay type: biochemical
reported conditions: AspH-inhibitor screening, 384-well Plate 1, substrate conversion
Structures can show the parent of a compound that is named as a salt.
Here, each record is paired with measured Plate 1 (% conversion) data.

{"columns": ["compound", "experimental system", "Plate 1 (% conversion) [%]"],
 "data": [
  ["Nc1ccn([C@@H]2O[C@H](CO)[C@@H](O)C2(F)F)c(=O)n1 [Gemcitabine hydrochloride]", "human AspH (His6-AspH315–758) (Homo sapiens)", 49.25],
  ["Cc1ccc([N+](=O)[O-])cc1S(=O)(=O)N(C)/N=C/c1cnc2ccc(Br)cn12.Cl [PIK-75 HCl]", "human AspH (His6-AspH315–758) (Homo sapiens)", 55.10],
  ["C=CC(=O)Nc1cc2c(Nc3ccc(F)c(Cl)c3)ncnc2cc1OCCCN1CCOCC1", "human AspH (His6-AspH315–758) (Homo sapiens)", 76.85],
  ["COc1cc2nccc(Oc3ccc(NC(=O)NC4CC4)c(Cl)c3)c2cc1C(N)=O", "human AspH (His6-AspH315–758) (Homo sapiens)", 58.98],
  ["COCC1(CO)C(=O)C2CCN1CC2 (stereo not shown)", "human AspH (His6-AspH315–758) (Homo sapiens)", 48.04],
  ["CC[C@@]1(O)C(=O)OCc2c1cc1n(c2=O)Cc2cc3c(CN(C)C)c(O)ccc3nc2-1 [Topotecan hydrochloride]", "human AspH (His6-AspH315–758) (Homo sapiens)", 47.50],
  ["CC(=O)O[C@@]12CO[C@@H]1C[C@H](O)[C@@]1(C)C(=O)[C@H](O)C3=C(C)[C@@H](OC(=O)[C@H](O)[C@@H](NC(=O)OC(C)(C)C)c4ccccc4)C[C@@](O)([C@@H](OC(=O)c4ccccc4)[C@H]21)C3(C)C", "human AspH (His6-AspH315–758) (Homo sapiens)", 52.34]
]}
